Source of measurements: patent US20090197878A1

test system: alkaline phosphatase activity in T47D cells; test: Effects of progestins and antiprogestins on alkaline phosphatase activity in T47D cells; assay type: cell-based; conditions: Homo sapiens, at 3000 nM, in the presence of 1 nM progesterone
experimental endpoint: inhibition at 3 µM (%)

compound: CC/C(=C\C(N)=O)c1ccc2c(c1)C1(CCCCC1)OC(=O)N2 [Example 18]
result units: %
result: 22
//
compound: CCC/C(=C\C=O)c1ccc2c(c1)C(CC)(CC)OC(=O)N2 [Example 26]
result units: %
result: 100
//
compound: CC1(C)OC(=O)Nc2ccc(/C=C/C(=O)O)cc21 [Example 14]
result units: %
result: 0
//
compound: C/C(=C\C(=O)O)c1ccc2c(c1)C(C)(C)OC(=O)N2 [Example 15]
result units: %
result: 0
//
compound: CCC/C(=C\C(N)=O)c1ccc2c(c1)C(CC)(CC)OC(=O)N2 [Example 24]
result units: %
result: 65
//
compound: C/C(=C\C(N)=O)c1ccc2c(c1)C1(CCCCC1)OC(=O)N2 [Example 16]
result units: %
result: 0
//
compound: C/C(=C/C#N)c1ccc2c(c1)C(C)(C)OC(=O)N2 [Example 12]
result units: %
result: 25

* * *

molecule smiles: CCC1(CC)OC(=O)Nc2ccc(/C(C)=C/C#N)cc21
melting point: 159 to 160 °C
//
molecule smiles: CC1(C)OC(=O)Nc2ccc(/C=C/C(=O)O)cc21
melting point: 260 to 261 °C (dec.)
//
molecule smiles: CCC/C(=C\C(N)=O)c1ccc2c(c1)C(CC)(CC)OC(=O)N2
melting point: 212 to 213 °C
//
molecule smiles: C/C(=C/C#N)c1ccc2c(c1)C(C)(C)OC(=O)N2
melting point: 213 to 215 °C
//
molecule smiles: CC1(C)OC(=O)Nc2ccc(/C(=C/C(N)=O)c3ccccc3)cc21
melting point: 219 to 220 °C
//
molecule smiles: CC/C(=C\C#N)c1ccc2c(c1)C(CC)(CC)OC(=O)N2
melting point: 135 to 136 °C
//
molecule smiles: CCC/C(=C\C=O)c1ccc2c(c1)C(CC)(CC)OC(=O)N2
melting point: 173 to 179 °C
//
molecule smiles: CC1(C)OC(=O)Nc2ccc(/C=C/c3ccno3)cc21
melting point: 190 to 193 °C
//
molecule smiles: CC1(C)OC(=O)Nc2ccc(C3=CC(=O)OCC3)cc21
melting point: 235 to 236 °C (dec.)
//
molecule smiles: CC/C(=C\C#N)c1ccc2c(c1)C1(CCCCC1)OC(=O)N2
melting point: 173 to 174 °C
//
molecule smiles: CC1(C)OC(=O)Nc2ccc(/C(=C/C#N)c3ccccc3)cc21
melting point: 205 to 206 °C
//
molecule smiles: C/C(=C\C#N)c1ccc2c(c1)C(C)(C)OC(=O)N2
melting point: 230 to 232 °C
//
molecule smiles: C/C(=C\C(=O)O)c1ccc2c(c1)C(C)(C)OC(=O)N2
melting point: 274 to 275 °C (dec.)
//
molecule smiles: C/C(=C\C(N)=O)c1ccc2c(c1)C(C)(C)OC(=O)N2
melting point: 198 to 200 °C
//
molecule smiles: CCC/C(=C\C#N)c1ccc2c(c1)C(CC)(CC)OC(=O)N2
melting point: 121 to 124 °C
//
molecule smiles: CC1(C)OC(=O)Nc2ccc(/C=C/C#N)cc21
melting point: 238 to 240 °C (dec.)
//
molecule smiles: COC(=O)/C=C(\C)c1ccc2c(c1)C(C)(C)OC(=O)N2
melting point: 131 to 132 °C
//
molecule smiles: CCC1(CC)OC(=O)Nc2ccc(/C(=C/C#N)C(C)C)cc21
melting point: 138 to 140 °C
//
molecule smiles: COC(=O)/C=C/c1ccc2c(c1)C(C)(C)CC(=O)N2
melting point: 174 to 175 °C
//
molecule smiles: C/C(=C\C(N)=O)c1ccc2c(c1)C1(CCCCC1)OC(=O)N2
melting point: 204 to 207 °C (dec.)
//
molecule smiles: CC1(C)OC(=O)Nc2ccc(/C=C/C(N)=O)cc21
melting point: 196 to 198 °C
//
molecule smiles: COC(=O)/C=C/c1ccc2c(c1)C(C)(C)OC(=O)N2
melting point: 204 to 205 °C
//
molecule smiles: CC(C)/C(=C\C#N)c1ccc2c(c1)C1(CCCCC1)OC(=O)N2
melting point: 201 to 203 °C (dec.)
//
molecule smiles: C/C(=C\C#N)c1ccc2c(c1)C1(CCCCC1)OC(=O)N2
melting point: 208 to 210 °C (dec.)
//
molecule smiles: CC/C(=C\C(N)=O)c1ccc2c(c1)C1(CCCCC1)OC(=O)N2
melting point: 235 to 238 °C (dec.)
//
molecule smiles: COC(=O)/C=C(\c1ccccc1)c1ccc2c(c1)C(C)(C)OC(=O)N2
melting point: 181 to 182 °C

* * *

target: progesterone receptor (PR) (Homo sapiens, UniProt P06401); construct: in live, intact (whole) cells, using the human breast carcinoma T47D cell line; endogenous in cells; experiment: Progesterone receptor whole cell competition binding assay using T47D cells; details: intact T47D cells, 3 nM 3H-progesterone, 3 hours at 37° C.
Sequence (P06401 whole entry): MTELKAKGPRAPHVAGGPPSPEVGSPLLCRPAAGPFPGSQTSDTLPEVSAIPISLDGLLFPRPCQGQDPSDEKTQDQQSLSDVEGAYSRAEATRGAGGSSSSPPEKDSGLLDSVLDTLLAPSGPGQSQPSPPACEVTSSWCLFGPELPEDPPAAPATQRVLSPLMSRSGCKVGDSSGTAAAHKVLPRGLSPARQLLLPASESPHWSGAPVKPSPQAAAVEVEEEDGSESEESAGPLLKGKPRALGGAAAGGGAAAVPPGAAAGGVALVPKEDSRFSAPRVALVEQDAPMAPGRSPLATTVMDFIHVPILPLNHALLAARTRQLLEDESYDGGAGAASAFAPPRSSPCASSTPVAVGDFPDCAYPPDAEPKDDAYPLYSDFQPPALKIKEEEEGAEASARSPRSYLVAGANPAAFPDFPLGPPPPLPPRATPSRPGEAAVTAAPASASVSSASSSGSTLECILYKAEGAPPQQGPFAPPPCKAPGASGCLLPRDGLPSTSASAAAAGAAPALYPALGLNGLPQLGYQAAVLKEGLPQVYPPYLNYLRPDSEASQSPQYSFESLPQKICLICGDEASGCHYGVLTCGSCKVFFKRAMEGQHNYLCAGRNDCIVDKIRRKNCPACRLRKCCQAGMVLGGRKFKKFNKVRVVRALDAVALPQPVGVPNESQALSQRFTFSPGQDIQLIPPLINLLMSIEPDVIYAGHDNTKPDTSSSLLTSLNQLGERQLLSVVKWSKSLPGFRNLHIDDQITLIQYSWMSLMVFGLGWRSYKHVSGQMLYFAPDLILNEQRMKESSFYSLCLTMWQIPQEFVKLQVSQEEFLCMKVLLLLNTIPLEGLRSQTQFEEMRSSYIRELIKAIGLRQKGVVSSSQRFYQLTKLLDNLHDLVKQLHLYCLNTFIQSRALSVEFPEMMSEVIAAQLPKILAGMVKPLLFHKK
Output schema: class label derived from IC50. Mapping: low bracket (below 50 nM), middle bracket (50 nM to below 200 nM), high bracket (200 nM or more)

molecule smiles: C/C(=C\C#N)c1ccc2c(c1)C(C)(C)OC(=O)N2
assigned label: low bracket
--
molecule smiles: CC/C(=C\C#N)c1ccc2c(c1)C(C)(C)OC(=O)N2
assigned label: middle bracket
--
molecule smiles: CC(C)/C(=C\C#N)c1ccc2c(c1)C(C)(C)OC(=O)N2
assigned label: high bracket
--
molecule smiles: CCC1(CC)OC(=O)Nc2ccc(/C(=C/C#N)C(C)C)cc21
assigned label: high bracket
--
molecule smiles: C/C(=C/C#N)c1ccc2c(c1)C(C)(C)OC(=O)N2
assigned label: high bracket
--
molecule smiles: CCC/C(=C\C#N)c1ccc2c(c1)C1(CCCCC1)OC(=O)N2
assigned label: low bracket
--
molecule smiles: CC/C(=C\C#N)c1ccc2c(c1)C(CC)(CC)OC(=O)N2
assigned label: middle bracket
--
molecule smiles: CCC/C(=C\C#N)c1ccc2c(c1)C(C)(C)OC(=O)N2
assigned label: middle bracket
--
molecule smiles: CCC1(CC)OC(=O)Nc2ccc(/C(C)=C/C#N)cc21
assigned label: middle bracket
--
molecule smiles: CC1(C)OC(=O)Nc2ccc(/C(=C/C#N)c3ccccc3)cc21
assigned label: middle bracket
--
molecule smiles: COC(=O)/C=C(\C)c1ccc2c(c1)C(C)(C)OC(=O)N2
assigned label: middle bracket
